Hi there, I'd appreciate the recorded %Inh for every entry that follows.
System: IKK-beta
Construct: gene IKBKB
Conditions: concentration: 1 μM, replicates: in singlicate; n = 1
Numbers only, in %.

Consider the reported %Inh for these molecules:
Clc1cc(Nc2ncnc3cc[nH]c23)ccc1OCc1ccccn1	20
Nc1nccc2scc(-c3ccc4c(c3)CCN4C(=O)Cc3cc(F)ccc3F)c12 [GSK2587663]	0
Cc1cccc(-c2nc(Nc3ccc4[nH]nnc4c3)c3ccccc3n2)n1 [GW867587]	0
Cl.c1ccc(Cn2ncc3cc(Nc4ncnc5ccccc45)ccc32)cc1 [GW273749]	31

Form entry - test system: IKK-beta; read-out: %Inh; molecule: C[C@H]1CC[C@@H](C(=O)Nc2ccccc2)CN1c1cc(-c2ccc3c(N)n[nH]c3c2)nc(N)n1 [GSK2283293];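 note: KINOMEscan kinase panel screen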
0
